This collection of values is drawn from the Immune Epitope Database (IEDB).

molecular target: HLA-B*15:17; assay: IEDB peptide-MHC binding, purified MHC/direct/fluorescence; filed as Kd, often an IC50 or EC50 that approximates it; bounds were set here for any values at or beyond the usual limits of such assays; details: source organism: Giardia lamblia ATCC 50803
measurement label: Kd (nM)

> print(dat)
   sequence.input  assay.value
1       LASSSYEQF         21.8
2       IASPILFPF          1.5

* * *

target: HLA-A*02:11; assay: IEDB peptide-MHC binding, purified MHC/competitive/fluorescence; filed as Kd, often an IC50 or EC50 that approximates it; bounds were set here for any values at or beyond the usual limits of such assays; details: source organism: Giardia lamblia ATCC 50803
measurement label: Kd (nM)

> print(dat)
   sequence.input  measurement.label  unit.spec  assay.value
1       SLQECVKMA                 Kd         nM          2.1

* * *

target: HLA-A*31:01; assay: IEDB peptide-MHC binding, purified MHC/competitive/fluorescence; filed as Kd, often an IC50 or EC50 that approximates it; bounds were set here for any values at or beyond the usual limits of such assays; conditions: source organism: Rickettsia typhi str. Wilmington
pKd: −log10 of the molar value.
measurement label: pKd

> print(dat)
   sequence.input  measurement.label  assay.value
1       LTIPTIMGR                pKd         8.59

* * *

target: HLA-A*02:03; assay: IEDB peptide-MHC binding, purified MHC/competitive/fluorescence; filed as Kd, often an IC50 or EC50 that approximates it; bounds were set here for any values at or beyond the usual limits of such assays; conditions: source organism: Campylobacter jejuni subsp. jejuni NCTC 11168 = ATCC 700819
measurement label: Kd

> print(dat)
   sequence.input  assay.value
1       KGMKIQHFK      ≥ 20 µM

* * *

biological target: HLA-C*07:02; assay: IEDB peptide-MHC binding, purified MHC/direct/fluorescence; filed as Kd, often an IC50 or EC50 that approximates it; bounds were set here for any values at or beyond the usual limits of such assays; details: source organism: Escherichia coli O157:H7 str. EDL933
measurement label: Kd

> print(dat)
   sequence.input  measurement.label  assay.value
1       RRNDVARIF                 Kd        41 nM

* * *

biological target: HLA-B*40:01; test: IEDB peptide-MHC binding, purified MHC/direct/fluorescence; filed as Kd, often an IC50 or EC50 that approximates it; bounds were set here for any values at or beyond the usual limits of such assays; settings: source organism: Haemophilus influenzae
measurement label: Kd

> print(dat)
   sequence.input  assay.value
1       FLADYRGKT      ≥ 20 µM

* * *

target: HLA-A*26:01; assay: IEDB peptide-MHC binding, purified MHC/competitive/fluorescence; filed as Kd, often an IC50 or EC50 that approximates it; bounds were set here for any values at or beyond the usual limits of such assays; conditions: source organism: Bacillus anthracis str. A0389
pKd: −log10 of the molar value.
measurement label: pKd

> print(dat)
   sequence.input  assay.value
1       FTDNNELEF       ≤ 4.70

* * *

target: HLA-B*15:17; assay: IEDB peptide-MHC binding, purified MHC/direct/fluorescence; filed as Kd, often an IC50 or EC50 that approximates it; bounds were set here for any values at or beyond the usual limits of such assays; settings: source organism: Cowpox virus
pKd: −log10 of the molar value.
measurement label: pKd

> print(dat)
   sequence.input  assay.value
1       YPPPRYITV       ≤ 4.70

* * *

molecular target: HLA-B*08:02; experiment: IEDB peptide-MHC binding, purified MHC/direct/fluorescence; filed as Kd, often an IC50 or EC50 that approximates it; bounds were set here for any values at or beyond the usual limits of such assays; details: source organism: Mycobacterium tuberculosis C
measurement label: Kd (nM)

> print(dat)
   sequence.input  unit.spec  assay.value
1       YLRRRQKAL         nM         1310

* * *

molecular target: HLA-B*07:02; test: IEDB peptide-MHC binding, purified MHC/competitive/radioactivity; filed as Kd, often an IC50 or EC50 that approximates it; bounds were set here for any values at or beyond the usual limits of such assays; conditions: source organism: Dengue virus 2 Jamaica/1409/1983
Listing of entries alongside the reported Kd.
measurement label: Kd (nM)

> print(dat)
   sequence.input  assay.value
1       GPLKLFMAL         2.35
2       IPMTGPLVA         50.7

* * *

biological target: HLA-B*07:02; test: IEDB peptide-MHC binding, purified MHC/direct/fluorescence; filed as Kd, often an IC50 or EC50 that approximates it; bounds were set here for any values at or beyond the usual limits of such assays; settings: source organism: Yersinia pestis
measurement label: Kd

> print(dat)
   sequence.input  measurement.label  assay.value
1       LTDEDKQNQ                 Kd      ≥ 20 µM

* * *

target: HLA-A*02:01; test: IEDB peptide-MHC binding, purified MHC/competitive/fluorescence; bounds were set here for any values at or beyond the usual limits of such assays; settings: source organism: Variola virus
pIC50: −log10 of the molar value.
Listing of entries alongside the reported pIC50.
measurement label: pIC50

> print(dat)
   sequence.input  measurement.label  assay.value
1       KIDSMFLMT              pIC50         6.25
2       LASLTPKAQ              pIC50       ≤ 3.69
3       RPVVLTGGT              pIC50       ≤ 4.05

* * *

target: HLA-B*07:02; assay: IEDB peptide-MHC binding, purified MHC/competitive/fluorescence; bounds were set here for any values at or beyond the usual limits of such assays; conditions: source organism: Sudan ebolavirus
pIC50: −log10 of the molar value.
measurement label: pIC50

> print(dat)
   sequence.input  assay.value
1       FQKAFSMPL         4.80

* * *

molecular target: HLA-A*69:01; test: IEDB peptide-MHC binding, purified MHC/direct/fluorescence; filed as Kd, often an IC50 or EC50 that approximates it; bounds were set here for any values at or beyond the usual limits of such assays; settings: source organism: Brucella suis 1330
pKd: −log10 of the molar value.
measurement label: pKd

> print(dat)
   sequence.input  target.or.system  assay.value
1       MRDGGSATV       HLA-A*69:01       ≤ 4.70

* * *

target: HLA-B*18:01; assay: IEDB peptide-MHC binding, purified MHC/competitive/fluorescence; filed as Kd, often an IC50 or EC50 that approximates it; bounds were set here for any values at or beyond the usual limits of such assays; details: source organism: Cryptosporidium parvum Iowa II
measurement label: Kd

> print(dat)
   sequence.input  measurement.label  assay.value
1       MSQMPPHPY                 Kd      ≥ 20 µM

* * *

target: HLA-B*46:01; test: IEDB peptide-MHC binding, purified MHC/direct/fluorescence; filed as Kd, often an IC50 or EC50 that approximates it; bounds were set here for any values at or beyond the usual limits of such assays; conditions: source organism: Yellow fever virus
pKd: −log10 of the molar value.
measurement label: pKd

> print(dat)
   sequence.input  assay.value
1       RTWHYCGSY       ≤ 4.70

* * *

biological target: HLA-A*26:01; test: IEDB peptide-MHC binding, purified MHC/direct/fluorescence; filed as Kd, often an IC50 or EC50 that approximates it; bounds were set here for any values at or beyond the usual limits of such assays; settings: source organism: Influenza A virus (A/Egypt/96/2002(H1N2))
measurement label: Kd (nM)

> print(dat)
   sequence.input  measurement.label  assay.value
1       STLELRSGY                 Kd         24.8

* * *

target: HLA-B*07:02; test: IEDB peptide-MHC binding, purified MHC/direct/fluorescence; filed as Kd, often an IC50 or EC50 that approximates it; bounds were set here for any values at or beyond the usual limits of such assays; settings: source organism: Brucella abortus
Listing of entries alongside the reported Kd.
measurement label: Kd

> print(dat)
   sequence.input  assay.value
1       LSDDSGLMV      ≥ 20 µM
2       LTDAFHGYH      ≥ 20 µM

* * *

target: HLA-B*58:01; assay: IEDB peptide-MHC binding, purified MHC/competitive/radioactivity; filed as Kd, often an IC50 or EC50 that approximates it; bounds were set here for any values at or beyond the usual limits of such assays; details: source organism: Dengue virus 2 Jamaica/1409/1983
Listing of entries alongside the reported Kd.
measurement label: Kd (nM)

> print(dat)
   sequence.input  assay.value
1       MAAILAYTI         1.26
2      STSTWVTYGT         1120

* * *

molecular target: HLA-A*24:03; assay: IEDB peptide-MHC binding, purified MHC/competitive/fluorescence; filed as Kd, often an IC50 or EC50 that approximates it; bounds were set here for any values at or beyond the usual limits of such assays; details: source organism: Burkholderia pseudomallei K96243
pKd: −log10 of the molar value.
measurement label: pKd

> print(dat)
   sequence.input  assay.value
1       DELWRGLLA       ≤ 4.70
